Reported values of activity change for individual entries
measurement.description: qHTS for Inhibitors of Inflammasome Signaling: IL-1-beta AlphaLISA Primary Screen
condition.description: THP-1 LPS/ATP IL-1B secretion, 16 h; at 57.5 µM, hits give low values
The whole screen tested about 360,000 compounds, of which about 17,000 (4.7%) were called active. About 5% were inconclusive and are not listed. The sample as a whole holds a higher share of actives than the screen did.
Please state the figure in %; there is no need to write the unit.

Known results for compounds:
compound	activity change (%)
COc1ccccc1Cc1c(-c2ccc(Cl)cc2)nc2c3ccccc3ccn12	4.19
CCCCc1c(-c2ccc(Br)cc2)ncn1CCc1ccccc1OC	-93.2

Fill blank: measured activity change of the compound O=C(Cn1cc(C(F)(F)F)ccc1=O)Nc1ccc2c(c1)OCCO2 is ____.
-6.35

Also check O=C(CN1CCN(c2ncc(C(F)(F)F)cc2Cl)CC1)Nc1ccc2c(c1)OCO2
-50.6

Also check O=C(NCCc1cccc(F)c1)C1CC(O)CN1C(=O)Nc1ccccc1 (stereo unspecified)
22.4

Also check O=C(O)c1ccccc1Cc1ccc(F)c2ccccc12
47.2

----------
measurement.description: qHTS for Inhibitors of Inflammasome Signaling: IL-1-beta AlphaLISA Primary Screen
condition.description: THP-1 LPS/ATP IL-1B secretion, 16 h; at 57.5 µM
Among all 360,000 compounds or so, about 17,000 (4.7%) were called active. Inconclusive results (about 5%) are left out. Cut-off read from the data, not from the text of the source: active = activity change below about -50%; inconclusive = mostly about -30% to -49%; inactive = weaker than that. Shown is part of a subset that was picked to be rich in actives.
Returns: one label drawn from 1 = active, -1 = inactive

Field: example entries. Status: answers known.
compound	cat
N=C1C(c2nc3ccccc3s2)=C(O)CN1NC(=O)c1ccc([N+](=O)[O-])cc1	1
O=C(CSCc1ccccc1)Nc1ccccc1	-1
Cc1ccc(S(=O)(=O)N(CCc2ccccc2)c2ccc3c(c2)C2CC3CCN2C(=O)OCc2ccccc2)cc1 (centres undefined)	-1
COc1ccccc1C(=O)c1ccccc1C(=O)c1ccccc1	-1
Cc1ccccc1-c1csc(C(O)c2cccc(Cl)c2)n1 (centres undefined)	-1
COc1cc(NC(=O)NCC2CCN(Cc3ccc(C)cc3)CC2)cc(OC)c1OC	-1
COc1ccc(Cl)cc1NC(=O)NCC1CCN(Cc2ccccc2F)CC1	-1
CCOc1ccc(NS(=O)(=O)c2ccc(C(=O)NCC3CCCO3)cc2)cc1 (centres undefined)	-1

Could you now consider this next compound?
Query: recorded result category for CC1CCN(C(=O)COC(=O)CCC(=O)c2cccs2)CC1 in this test
-1

----------
measurement.description: qHTS for Inhibitors of Inflammasome Signaling: IL-1-beta AlphaLISA Primary Screen
condition.description: THP-1 LPS/ATP IL-1B secretion, 16 h; at 57.5 µM
Screen size: about 360,000 compounds; about 17,000 (4.7%) were called active. Inconclusive results (about 5%) are left out. Cut-off read from the data, not from the text of the source: active = activity change below about -50%; inconclusive = mostly about -30% to -49%; inactive = weaker than that. This is one part of a sample in which actives are shown more often than they occur.
Returns: one label drawn from y for active, n for inactive

Field: example entries. Status: answers known.
compound	cat
CC(=O)OCC(=O)C1(O)CCC2C3CC(C)C4=CC(=O)CCC4(C)C3C(O)CC21C (configuration not stated)	y
CC(CC(=O)O)C(=O)c1ccc(Cl)c([N+](=O)[O-])c1 (configuration not stated)	n
Cc1ccc(-c2nn(-c3ccccc3)cc2C(=O)NCCCN2CCCC2=O)cc1	n

Could you now consider this next compound?
Query: recorded result category for O=C(NCCc1ccc(F)cc1)c1ccc(S(=O)(=O)N2CCCCC2)cc1 in this test
n

----------
measurement.description: qHTS for Inhibitors of Inflammasome Signaling: IL-1-beta AlphaLISA Primary Screen
condition.description: THP-1 LPS/ATP IL-1B secretion, 16 h; at 57.5 µM, hits give low values
Screen size: about 360,000 compounds; about 17,000 (4.7%) were called active. Roughly 5% stayed inconclusive and do not appear here. Many of the other results were omitted from the sample, so actives are more common in it than they were.
In plain terms, low activity change, meaning strictly below 10%, gives criterion met, and everything else gives criterion not met.

Field: example entries. Status: answers known.
molecule	cat
CN(CCO)C(=O)c1nc[nH]c1C(=O)N(C)Cc1ccccc1	criterion not met
CSc1ncc(Cl)c(C(=O)Nc2cc(C)ccc2C)n1	criterion not met
COCCNC(=O)C1C(=O)Nc2ccccc2C(=O)N1c1ccc2c(c1)OCCO2 (centres undefined)	criterion not met
Cc1ccc(-c2csc(NC(=O)Cn3[nH]c(=O)c4ccccc4c3=O)n2)cc1	criterion not met
C/C(CC(=O)Nc1cccc(F)c1)=N\NC(=O)C(=O)NC1CCCCC1	criterion met
CN1c2ccc(C=O)c3c(C=O)ccc(c23)N(C)C1(C)C	criterion met
CC1(C(=O)NCc2ccc3c(c2)OCO3)CCN1CCc1ccccc1 (centres undefined)	criterion not met
CCOC(=O)C1(C)CCCN(C(=O)c2ccc(N(C)C)cc2)C1 (centres undefined)	criterion met

Decide: activity change of CCc1cc2c(NC(Cc3ccccc3)C(=O)O)ncnc2s1 (centres undefined) strictly below 10%?
criterion met

Also check Cc1cccc(N2C(=O)c3ccc(C(=O)Nc4cccc(C(=O)O)c4)cc3C2=O)c1
criterion not met

Also check Cc1ccc(-c2csc(NC3OC(=O)c4ccccc43)n2)cc1 (centres undefined)
criterion met

Also check COc1ccc(-c2coc3c(C(=O)NC(C)C)cccc23)c(C)c1
criterion met

Also check COc1cccc(-c2ccc(SCC(=O)N3CCN(c4ccccc4)CC3)nn2)c1
criterion met

----------
measurement.description: qHTS for Inhibitors of Inflammasome Signaling: IL-1-beta AlphaLISA Primary Screen
condition.description: THP-1 LPS/ATP IL-1B secretion, 16 h; at 57.5 µM
Out of some 360,000 compounds screened, about 17,000 (4.7%) were called active. Roughly 5% stayed inconclusive and do not appear here. Rule as the data show it: active = activity change below about -50%; inconclusive = mostly about -30% to -49%; inactive = weaker than that. The sample as a whole holds a higher share of actives than the screen did.
Returns: one label drawn from 1 (active), -1 (inactive)

compound	cat
O=C(/C(=N\O)n1cncn1)c1ccc(Br)cc1Br	-1
CCn1ccnc1CN(C)C(=O)c1cc(COc2ccc(-n3cncn3)cc2)on1	-1

Could you now consider this next compound?
Query: recorded result category for O=C1COc2ccc(S(=O)(=O)Nc3ccc(OC(F)(F)F)cc3)cc2N1 in this test
-1

----------
measurement.description: qHTS for Inhibitors of Inflammasome Signaling: IL-1-beta AlphaLISA Primary Screen
condition.description: THP-1 LPS/ATP IL-1B secretion, 16 h; at 57.5 µM, hits give low values
Screen size: about 360,000 compounds; about 17,000 (4.7%) were called active. About 5% were inconclusive and are not listed. The sample holds actives, similar compounds and a random draw of the others, so the mix is not that of the screen.
measured.endpoint: activity change (%)
Please state the figure in %; there is no need to write the unit.

Known results for compounds:
compound	units.text	activity change
COc1cc2ccccc2cc1C(=O)N(CCN(C)C)c1nc2c(F)cccc2s1	%	14.7
Cc1cc(C)c2nc(N(CCN(C)C)C(=O)/C=C/c3cccs3)sc2c1	%	16.5
COc1ccc(N(C)C(=O)CCS(=O)(=O)c2cccc3nsnc23)cc1	%	-11.5
COCCCn1c(=O)/c(=C/c2ccccc2OC(C)C)s/c1=C(\C#N)C(=O)Nc1ccc(C(=O)O)cc1	%	-11.6
O=C(CN1CCCCCC1)NCCN1C(=O)S/C(=C\c2ccccc2Cl)C1=O	%	-15.4
CCCC(=O)N1CCC1(C)C(=O)NCc1ccc(C(C)C)cc1 (stereo unspecified)	%	-18

Fill blank: measured activity change of the compound COc1ccccc1NC(=O)CC(NCCN(C)C)C(=O)O (stereo unspecified) is ____.
12.6

----------
measurement.description: qHTS for Inhibitors of Inflammasome Signaling: IL-1-beta AlphaLISA Primary Screen
condition.description: THP-1 LPS/ATP IL-1B secretion, 16 h; at 57.5 µM, hits give low values
The whole screen tested about 360,000 compounds, of which about 17,000 (4.7%) were called active. Not shown: some 5% with an inconclusive outcome. The entries come from a sample that favours actives as a whole.
Reported values of activity change for individual entries
Please state the figure in %; there is no need to write the unit.

Known results for compounds:
compound	activity change [%]
Cn1nc(C(F)(F)F)c(C(=O)Nc2cccc(C(F)(F)F)c2)c1SCc1ccc(Cl)cc1	-81.8
CC(=O)N1CCN(S(=O)(=O)c2c(F)cc(F)c(Cl)c2F)CC1	-92.4
CC1(c2ccccc2)NC(=O)N(CC(=O)Nc2cc(Cl)ccc2N2CCOCC2)C1=O (centres undefined)	1.47

Fill blank: measured activity change of the compound CCN1/C(=C/c2ccc3ccc(C)cc3[n+]2CC)Sc2ccccc21 is ____.
-101

Also check O=C(Nc1ccncc1)c1cc2ccccc2o1
-4.22

Also check Cc1cc(Br)ccc1NC(=O)c1cnc(N2CCN(c3ccccn3)CC2)c2ccccc12
1.57

Also check CCN(CC)c1ccc(NC(=O)CN2CCN(c3ccccn3)CC2)cc1
2.92

----------
measurement.description: qHTS for Inhibitors of Inflammasome Signaling: IL-1-beta AlphaLISA Primary Screen
condition.description: THP-1 LPS/ATP IL-1B secretion, 16 h; at 57.5 µM
In all, about 360,000 compounds went through this assay and about 17,000 (4.7%) were called active. About 5% were inconclusive and are not listed. No stated cut-off is given here; in the data, active means activity change below about -50%; inconclusive means mostly about -30% to -49%; inactive means weaker than that. Many of the other results were omitted from the sample, so actives are more common in it than they were.
Returns: one label drawn from 1.0 = active, 0.0 = inactive

Field: example entries. Status: answers known.
compound	cat
COc1ccc(CCNCc2c(-c3ccccc3)n(C)c3ccccc23)cc1	1.0
COc1ccc(N=C2C=CC(=O)O2)cc1	0.0
COCCCN1C(=O)C(CC(=O)NCc2cccs2)CC(C(=O)N2CCOCC2)=C1C (stereo not drawn)	0.0
NC(CSC1(c2ccccc2)c2ccccc2-c2ccccc21)C(=O)O (stereo not drawn)	0.0
CC(C)n1c(-c2cccs2)nc2ccccc21	0.0
CCOC(=O)[C@H]1[C@H]2COc3ccc(Br)cc3[C@@H]2N2C(=O)CN(C)C(=O)[C@@]12C	0.0
O=C(NNC(=O)c1ccc2ccccc2c1)c1ccc(Cl)cc1	0.0

Could you now consider this next compound?
Query: recorded result category for COc1ccc(NC(=O)CN(C)C(=O)CNC(=O)C2CCCCC2)cc1 in this test
0.0
